Tested on: P. chrysogenum
Assay: MIC, dose-dependent solid media assay
Type: cell-based, Penicillium chrysogenum
Conditions: Penicillium chrysogenum, value in parentheses
measuredAttribute: MIC

recordSmiles: Cc1ccccc1C1=CCOB1O
measuredAttribute: MIC
reportedValue: > 287 µM

recordSmiles: OB1OCC=C1C1=CCCCC1
measuredAttribute: MIC
reportedValue: > 305 µM

MIC reported for this molecule OB1OCC=C1c1ccccc1Cl : > 258 µM
